Where do these numbers come from? They come from patent US9546173B2.

Exercise: state measured IC50 for each of the compounds provided.
# System name: activated ERK2 (Homo sapiens (Human), UniProt P28482)
# Sequence (P28482 whole entry): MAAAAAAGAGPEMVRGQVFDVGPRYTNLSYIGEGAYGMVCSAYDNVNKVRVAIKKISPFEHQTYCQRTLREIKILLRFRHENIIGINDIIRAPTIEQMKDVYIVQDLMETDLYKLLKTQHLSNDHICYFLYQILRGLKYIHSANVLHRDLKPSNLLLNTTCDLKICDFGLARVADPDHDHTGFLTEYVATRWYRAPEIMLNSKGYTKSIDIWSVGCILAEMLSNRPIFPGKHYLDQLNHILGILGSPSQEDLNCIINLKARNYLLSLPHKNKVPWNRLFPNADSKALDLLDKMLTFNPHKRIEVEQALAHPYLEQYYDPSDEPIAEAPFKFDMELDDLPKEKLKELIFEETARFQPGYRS
# Assay method text: Activated ERK2 kinase assay (AlphaScreen, ERKtide peptide phosphorylation)
# Type: biochemical
# Condition notes: […] ERK2, 200 nM ERKtide peptide, 35 μM ATP, 30 min preincubation; read-out: ERK2 IC50
Give the number; nM is assumed, so skip it.

State recorded IC50 with activated ERK2 (Homo sapiens (Human), UniProt P28482), entry CC1(C)c2cnc(NC3CCOCC3)nc2CN1C(=O)N[C@@H]1CCCN(S(=O)(=O)c2ccccc2F)C1 [compound 41] , no comment.
13

State recorded IC50 with activated ERK2 (Homo sapiens (Human), UniProt P28482), entry CC1(C)c2cnc(NC3CCOCC3)nc2CN1C(=O)NCC1CCCCC1 [compound 47] , no comment.
31

State recorded IC50 with activated ERK2 (Homo sapiens (Human), UniProt P28482), entry CC1(C)c2cnc(Nc3ccccc3)nc2CN1C(=O)NCCO [compound 164] , no comment.
18400

State recorded IC50 with activated ERK2 (Homo sapiens (Human), UniProt P28482), entry CC1(C)c2cnc(NC3CCOCC3)nc2CN1C(=O)NCc1cc(F)cc(Cl)c1 [compound 13] , no comment.
8

---

# System name: activated ERK2 (Homo sapiens (Human), UniProt P28482)
# Assay method text: Activated ERK2 kinase assay (AlphaScreen, ERKtide peptide phosphorylation)
# Format: biochemical
# Condition notes: […] ERK2, 200 nM ERKtide peptide, 35 μM ATP, 30 min preincubation; read-out: ERK2 IC50
Observed property: pIC50
On this scale, pIC50 is minus log10 of a concentration expressed in M (mol/L).

Identify measured pIC50 corresponding to CC1(C)c2cnc(NC3CCCOC3)nc2CN1C(=O)N[C@H](CO)c1ccccc1 (some centres unmarked) [compound 25]
6.71

Identify measured pIC50 corresponding to CC1(C)c2cnc(NC3CCOCC3)nc2CN1C(=O)NCc1ccc(S(=O)(=O)C(F)(F)F)cc1 [compound 137]
7.72

Identify measured pIC50 corresponding to CC1(C)c2cnc(NC3CCOCC3)nc2CN1C(=O)Nc1cnn(Cc2ccccc2F)c1 [compound 105]
7.41

Identify measured pIC50 corresponding to COCCNc1ncc2c(n1)CN(C(=O)N[C@H](CO)c1ccccc1)C2(C)C [compound 57]
5.46

Identify measured pIC50 corresponding to COC(=O)N1CC[C@H](Nc2ncc3c(n2)CN(C(=O)N[C@H](CO)c2ccccc2)C3(C)C)C1 [compound 65]
5.05

Identify measured pIC50 corresponding to Cc1ccc(S(=O)(=O)N2CCC[C@@H](NC(=O)N3Cc4nc(NC5CCOCC5)ncc4C3(C)C)C2)cc1 [compound 114]
6.75

Identify measured pIC50 corresponding to CN1CCC(NC(=O)N2Cc3nc(Nc4ccccc4)ncc3C2(C)C)CC1 [compound 163]
4.08

Identify measured pIC50 corresponding to Cn1cncc1CNC(=O)N1Cc2nc(Nc3ccccc3)ncc2C1(C)C [compound 160]
4.44

Identify measured pIC50 corresponding to C[C@@H](NC(=O)N1Cc2nc(NC3CCOCC3)ncc2C1(C)C)c1ccc(C#N)cc1 [compound 136]
7.68

Identify measured pIC50 corresponding to C[C@H](NC(=O)N1Cc2nc(NC3CCOCC3)ncc2C1(C)C)c1cc(F)cc(S(C)(=O)=O)c1 [compound 116]
6.34

Identify measured pIC50 corresponding to CC1(C)c2cnc(NC3CCOCC3)nc2CN1C(=O)N[C@@H]1CC1c1ccccc1 (some centres unmarked) [compound 9]
7.64

Identify measured pIC50 corresponding to CN1CC(NC(=O)N2Cc3nc(Nc4ccccc4)ncc3C2(C)C)C1 [compound 153]
3.90

Identify measured pIC50 corresponding to CNC(=O)C1CC(NC(=O)N2Cc3nc(NC4CCOCC4)ncc3C2(C)C)CN(Cc2ccccc2F)C1 (centres unmarked) [compound 102]
5.64

Identify measured pIC50 corresponding to CN1CCC(NC(=O)N2Cc3nc(Nc4ccccc4)ncc3C2(C)C)C1 (centres unmarked) [compound 158]
4.39

Identify measured pIC50 corresponding to CO[C@H]1CC[C@H](Nc2ncc3c(n2)CN(C(=O)N[C@H](CO)c2ccccc2)C3(C)C)CC1 [compound 67]
7.17

Identify measured pIC50 corresponding to CC1(C)c2cnc(Nc3ccccc3)nc2CN1C(=O)NCc1cocn1 [compound 162]
4.79

Identify measured pIC50 corresponding to CNC(=O)c1cccc(CNC(=O)N2Cc3nc(NC4CCOCC4)ncc3C2(C)C)c1 [compound 100]
7.35

Identify measured pIC50 corresponding to CC(C)Nc1ncc2c(n1)CN(C(=O)N[C@H](CO)c1ccccc1)C2(C)C [compound 74]
6.91

Identify measured pIC50 corresponding to CC1(C)c2cnc(NC3CCOCC3)nc2CN1C(=O)N[C@H](CO)c1cccc(F)c1 [compound 128]
8.05

Identify measured pIC50 corresponding to CC1(C)c2cnc(NC3CCOCC3)nc2CN1C(=O)N[C@H]1CCCNC1 [compound 6]
5.63

Identify measured pIC50 corresponding to CC1(C)c2cnc(NC3CCOCC3)nc2CN1C(=O)N[C@@H]1CCCN(S(=O)(=O)c2cccc(Cl)c2)C1 [compound 118]
7.64

Identify measured pIC50 corresponding to CC1(C)c2cnc(NC3CCOCC3)nc2CN1C(=O)N[C@@H]1CCN(Cc2cccc(Cl)c2)C1 [compound 104]
7.43

Identify measured pIC50 corresponding to CNC(=O)C1CC(NC(=O)N2Cc3nc(NC4CCOCC4)ncc3C2(C)C)CN(Cc2cccc(Cl)c2)C1 (centres unmarked) [compound 103]
5.04

Identify measured pIC50 corresponding to O=C(NCCc1ccccc1)N1Cc2nc(NC3CCOCC3)ncc2C12CCC2 [compound 96]
7.05

Identify measured pIC50 corresponding to CN(C)C(=O)c1cccc(CNC(=O)N2Cc3nc(NC4CCOCC4)ncc3C2(C)C)c1 [compound 101]
6.31

Identify measured pIC50 corresponding to CC1(C)c2cnc(NC3CCOCC3)nc2CN1C(=O)NCc1ccc(Br)cc1 [compound 123]
8.15

Identify measured pIC50 corresponding to CC1(C)c2cnc(NC3CCOCC3)nc2CN1C(=O)NCc1ccc(Cl)cn1 [compound 35]
6.97

Identify measured pIC50 corresponding to CN1CCN(C(=O)N2Cc3nc(Nc4ccccc4)ncc3C2(C)C)C(Cc2ccccc2)C1 (centres unmarked) [compound 154]
5.52

Identify measured pIC50 corresponding to CC(C)[C@@H](C)NC(=O)N1Cc2nc(NC3CCOCC3)ncc2C1(C)C [compound 33]
6.22

Identify measured pIC50 corresponding to CC(=O)N1CC(Nc2ncc3c(n2)CN(C(=O)N[C@H](CO)c2ccccc2)C3(C)C)C1 [compound 69]
5.25

Identify measured pIC50 corresponding to Cn1ccc(Nc2ncc3c(n2)CN(C(=O)N[C@H](CO)c2ccccc2)C3(C)C)n1 [compound 71]
5.59

---

Exercise: state measured pIC50 for each of the molecules provided.
On this scale, pIC50 is minus log10 of a concentration expressed in M (mol/L).

State recorded pIC50 with RSK2 (Homo sapiens (Human), UniProt P51812), entry CN(C)Cc1ccccc1CNC(=O)N1Cc2nc(Nc3ccccc3)ncc2C1(C)C , no comment.
Sequence (P51812 whole entry, species assumed): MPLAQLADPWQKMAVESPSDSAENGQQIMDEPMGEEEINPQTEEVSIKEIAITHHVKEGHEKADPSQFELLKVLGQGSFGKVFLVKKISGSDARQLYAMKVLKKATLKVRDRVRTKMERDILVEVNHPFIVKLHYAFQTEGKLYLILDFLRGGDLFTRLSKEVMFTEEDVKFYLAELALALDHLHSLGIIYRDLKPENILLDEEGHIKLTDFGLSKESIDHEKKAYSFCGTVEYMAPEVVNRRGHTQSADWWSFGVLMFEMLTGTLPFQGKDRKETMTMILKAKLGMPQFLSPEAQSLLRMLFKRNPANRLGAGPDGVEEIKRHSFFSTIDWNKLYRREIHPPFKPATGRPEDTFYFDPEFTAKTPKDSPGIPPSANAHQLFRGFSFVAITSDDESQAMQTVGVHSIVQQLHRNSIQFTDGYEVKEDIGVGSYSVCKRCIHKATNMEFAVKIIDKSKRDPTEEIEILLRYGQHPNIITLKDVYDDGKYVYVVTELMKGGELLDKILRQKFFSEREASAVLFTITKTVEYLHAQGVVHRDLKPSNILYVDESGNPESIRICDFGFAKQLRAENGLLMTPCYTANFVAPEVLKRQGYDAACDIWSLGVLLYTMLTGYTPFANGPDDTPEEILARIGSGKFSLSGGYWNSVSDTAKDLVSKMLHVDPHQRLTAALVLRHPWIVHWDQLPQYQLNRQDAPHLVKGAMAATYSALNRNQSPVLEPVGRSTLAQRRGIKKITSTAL
4.79

State recorded pIC50 with RSK2 (Homo sapiens (Human), UniProt P51812), entry Cn1cncc1CNC(=O)N1Cc2nc(Nc3ccccc3)ncc2C1(C)C , no comment.
5.25

State recorded pIC50 with RSK2 (Homo sapiens (Human), UniProt P51812), entry CC1(C)c2cnc(Nc3ccccc3)nc2CN1C(=O)NCc1cocn1 , no comment.
5.09

State recorded pIC50 with RSK2 (Homo sapiens (Human), UniProt P51812), entry CN1CCN(C(=O)N2Cc3nc(Nc4ccccc4)ncc3C2(C)C)C(Cc2ccccc2)C1 (centres unmarked) , no comment.
5.79

State recorded pIC50 with RSK2 (Homo sapiens (Human), UniProt P51812), entry CN1CC(NC(=O)N2Cc3nc(Nc4ccccc4)ncc3C2(C)C)C1 , no comment.
5.86

State recorded pIC50 with RSK2 (Homo sapiens (Human), UniProt P51812), entry C[C@@H](NC(=O)N1Cc2nc(Nc3ccccc3)ncc2C1(C)C)c1ccccc1 , no comment.
5.59

State recorded pIC50 with RSK2 (Homo sapiens (Human), UniProt P51812), entry CC1(C)c2cnc(Nc3ccccc3)nc2CN1C(=O)NC1CCOCC1 , no comment.
4.82

---

# System name: activated ERK2 (Homo sapiens (Human), UniProt P28482)
# Assay method text: Activated ERK2 kinase assay (AlphaScreen, ERKtide peptide phosphorylation)
# Assay type: biochemical
# Condition notes: […] ERK2, 200 nM ERKtide peptide, 35 μM ATP, 30 min preincubation; read-out: ERK2 IC50
# Procedure: Production of Activated ERK2 Protein: Activated ERK2 protein was generated in insect cells by co-expression with a constitutively active form of MEK1. […] A 16-point, half-log dilution series of compounds at 41× final concentration was used for generating IC50 curves. […] Terminated reactions were read, after overnight incubation in the dark, on an EnVision Multilabel Plate Reader (PerkinElmer, Waltham, Mass.), with excitation and emission wavelengths set to 680 nm and 570 nm, respectively. […]
Lab note - cut at 200 nM for IC50: 1 (yes) if strictly below, 0 (no) if not.

Identify whether the compound CC1(C)c2cnc(NC3CCS(=O)(=O)CC3)nc2CN1C(=O)N[C@H](CO)c1ccccc1 records IC50 below 200 nM.
0 (no)

Identify whether the compound CN(C)CCNC(=O)N1Cc2nc(Nc3ccccc3)ncc2C1(C)C records IC50 below 200 nM.
0 (no)

Identify whether the compound C[C@@H](NC(=O)N1Cc2nc(NC3CCOCC3)ncc2C1(C)C)c1ccc(S(C)(=O)=O)cc1 records IC50 below 200 nM.
1 (yes)

Identify whether the compound CC1(C)c2cnc(NC3CCOCC3)nc2CN1C(=O)NCc1nc2ccccc2s1 records IC50 below 200 nM.
1 (yes)

Identify whether the compound CC1(C)c2cnc(N[C@H]3CC[C@H](O)CC3)nc2CN1C(=O)N[C@H](CO)c1ccccc1 records IC50 below 200 nM.
1 (yes)

Identify whether the compound CC1(C)c2cnc(NC3CCOCC3)nc2CN1C(=O)N[C@H](CO)C1CCCCC1 records IC50 below 200 nM.
1 (yes)

Identify whether the compound CC1(C)c2cnc(NC3CCOCC3)nc2CN1C(=O)NC(c1ccccc1)C(F)(F)F (centres unmarked) records IC50 below 200 nM.
1 (yes)

Identify whether the compound CC1(C)c2cnc(NC3CCOCC3)nc2CN1C(=O)NC1CC(CO)CN(Cc2ccccc2F)C1 (centres unmarked) records IC50 below 200 nM.
0 (no)
